experimental protocol: Oral bioavailability in rat at 5 mg/kg by LC-MS/MS analysis
Type: ADME, organism-based
condition context: in vivo

{"molecule": "Cc1ccc(-c2c3c(nc(C)c2C(OC(C)(C)C)C(=O)O)CCN(CCCC2CCCC2)C3)cc1 (stereo unspecified)", "bioavailability": "32%"}
{"molecule": "Cc1ccc(-c2c3c(nc(C)c2[C@H](OC(C)(C)C)C(=O)O)CCN(Cc2ccccc2)C3)cc1", "bioavailability": "35%"}
{"molecule": "Cc1nc2c(c(-c3cc(F)c4c(c3C)CCCO4)c1[C@H](OC(C)(C)C)C(=O)O)CN(CCCc1ccccc1)CC2", "bioavailability": "10%"}
{"molecule": "Cc1ccc(-c2c3c(nc(C)c2[C@H](OC(C)(C)C)C(=O)O)CCN(C(=O)OCc2ccccc2)C3)cc1", "bioavailability": "71%"}
{"molecule": "Cc1ccc(-c2c3c(nc(C)c2C(OC(C)(C)C)C(=O)O)CCN(Cc2ccccc2-c2ccccc2)C3)cc1 (stereo unspecified)", "bioavailability": "25%"}
{"molecule": "Cc1nc2c(c(-c3cc(F)c4c(c3C)CCCO4)c1[C@H](OC(C)(C)C)C(=O)O)CN(CCCc1ccc(F)cc1)CC2", "bioavailability": "10%"}

----------
experimental protocol: Displacement of [3H]-2-tert-butoxy-2-(2-methyl-4-p-tolylquinolin-3-yl)acetic acid from LEDGF/p75 binding site of HIV1 integrase preincubated with radioligand for 1 hr followed by compound addition and measured after 1 hr by microbeta counting assay
Design: species or system Human immunodeficiency virus 1
pIC50: −log10 of the molar value.
Use label 1 when the recorded pIC50 is no lower than 7; use label 0 when it is lower.

{"compound": "Cc1nc2c(c(-c3cc(F)c4c(c3C)CCCO4)c1[C@H](OC(C)(C)C)C(=O)O)CN(CCCc1ccc(F)cc1)CC2", "class label": "label 1"}
{"compound": "Cc1nc2c(c(-c3cc(F)c4c(c3C)CCCO4)c1[C@H](OC(C)(C)C)C(=O)O)CN(CC1CC1c1ccccc1)CC2 (mixture of isomers)", "class label": "label 1"}
{"compound": "Cc1nc2c(c(-c3cc(F)c4c(c3C)CCCO4)c1[C@H](OC(C)(C)C)C(=O)O)CN(CCCc1ccccc1F)CC2", "class label": "label 1"}
{"compound": "Cc1ccc(-c2c3c(nc(C)c2[C@H](OC(C)(C)C)C(=O)O)CCN(C(=O)NCc2ccccc2)C3)cc1", "class label": "label 0"}
{"compound": "Cc1ccc(-c2c3c(nc(C)c2C(OC(C)(C)C)C(=O)O)CCN(CCCC2CCCC2)C3)cc1 (centres undefined)", "class label": "label 0"}
{"compound": "Cc1ccc(-c2c3c(nc(C)c2[C@H](OC(C)(C)C)C(=O)O)CCN(CCOc2ccccc2)C3)cc1", "class label": "label 0"}
{"compound": "Cc1ccc(-c2c3c(nc(C)c2[C@H](OC(C)(C)C)C(=O)O)CCN(c2ccccc2)C3)cc1", "class label": "label 0"}
{"compound": "Cc1ccc(-c2c3c(nc(C)c2C(OC(C)(C)C)C(=O)O)CCN(S(C)(=O)=O)C3)cc1 (centres undefined)", "class label": "label 0"}
{"compound": "COC(=O)N1CCc2nc(C)c(C(OC(C)(C)C)C(=O)O)c(-c3ccc(C)cc3)c2C1 (centres undefined)", "class label": "label 0"}
{"compound": "Cc1ccc(-c2c3c(nc(C)c2[C@H](OC(C)(C)C)C(=O)O)CCN(c2ccc(-c4ccccc4)cc2)C3)cc1", "class label": "label 0"}
{"compound": "Cc1nc2c(c(-c3cc(F)c4c(c3C)CCCO4)c1[C@H](OC(C)(C)C)C(=O)O)CN(CCCc1ccncc1)CC2 (single isomer, unassigned; atropisomer)", "class label": "label 1"}
{"compound": "Cc1ccc(CCCN2CCc3nc(C)c([C@H](OC(C)(C)C)C(=O)O)c(-c4cc(F)c5c(c4C)CCCO5)c3C2)cc1F", "class label": "label 1"}
{"compound": "Cc1ccccc1CCCN1CCc2nc(C)c([C@H](OC(C)(C)C)C(=O)O)c(-c3cc(F)c4c(c3C)CCCO4)c2C1", "class label": "label 1"}
{"compound": "Cc1ccc(-c2c3c(nc(C)c2C(OC(C)(C)C)C(=O)O)CCN(C)C3)cc1 (centres undefined)", "class label": "label 0"}
{"compound": "Cc1ccc(-c2c3c(nc(C)c2[C@H](OC(C)(C)C)C(=O)O)CCN(C(=O)CCc2ccccc2)C3)cc1", "class label": "label 0"}
{"compound": "CC(=O)N1CCc2nc(C)c(C(OC(C)(C)C)C(=O)O)c(-c3ccc(C)cc3)c2C1 (centres undefined)", "class label": "label 0"}
{"compound": "Cc1ccc(CCCN2CCc3nc(C)c([C@H](OC(C)(C)C)C(=O)O)c(-c4cc(F)c5c(c4C)CCCO5)c3C2)cc1", "class label": "label 1"}
{"compound": "Cc1ccc(-c2c3c(nc(C)c2[C@H](OC(C)(C)C)C(=O)O)CCN(CCc2ccccc2)C3)cc1", "class label": "label 0"}
{"compound": "Cc1ccc(-c2c3c(nc(C)c2C(OC(C)(C)C)C(=O)O)CCN(c2cccc(-c4ccccc4)c2)C3)cc1 (centres undefined)", "class label": "label 0"}
{"compound": "Cc1ccc(-c2c3c(nc(C)c2[C@H](OC(C)(C)C)C(=O)O)CCN(Cc2ccccc2)C3)cc1", "class label": "label 0"}
{"compound": "Cc1nc2c(c(-c3cc(F)c4c(c3C)CCCO4)c1[C@H](OC(C)(C)C)C(=O)O)CN(CCCc1ccccc1)CC2", "class label": "label 1"}
{"compound": "Cc1nc2c(c(-c3cc(F)c4c(c3C)CCCO4)c1[C@H](OC(C)(C)C)C(=O)O)CN(CCCc1cccc(F)c1)CC2", "class label": "label 1"}
{"compound": "CCCCCN1CCc2nc(C)c(C(OC(C)(C)C)C(=O)O)c(-c3ccc(C)cc3)c2C1 (centres undefined)", "class label": "label 0"}
{"compound": "Cc1cccc(CCCN2CCc3nc(C)c([C@H](OC(C)(C)C)C(=O)O)c(-c4cc(F)c5c(c4C)CCCO5)c3C2)c1", "class label": "label 1"}

----------
Each entry below carries its reported pIC50.
experimental protocol: Displacement of [3H]-2-tert-butoxy-2-(2-methyl-4-p-tolylquinolin-3-yl)acetic acid from LEDGF/p75 binding site of HIV1 integrase preincubated with radioligand for 1 hr followed by compound addition and measured after 1 hr by microbeta counting assay
Parameters: species or system Human immunodeficiency virus 1
pIC50: −log10 of the molar value.

{"molecule": "Cc1ccc(-c2c3c(nc(C)c2[C@H](OC(C)(C)C)C(=O)O)CCN(C(=O)OCc2ccccc2)C3)cc1", "pIC50": 6.85}
{"molecule": "Cc1ccc(-c2c3c(nc(C)c2[C@H](OC(C)(C)C)C(=O)O)CCN(CCCc2ccccc2)C3)cc1", "pIC50": 7.15}
{"molecule": "Cc1ccc(-c2c3c(nc(C)c2C(OC(C)(C)C)C(=O)O)CCN(Cc2ccccc2-c2ccccc2)C3)cc1 (stereo not given)", "pIC50": 7.10}
{"molecule": "Cc1nc2ccccc2c(-c2ccc3c4c(ccnc24)CCO3)c1[C@H](OC(C)(C)C)C(=O)O", "pIC50": 7.15}
{"molecule": "Cc1ccc(-c2c3c(nc(C)c2[C@H](OC(C)(C)C)C(=O)O)CCN(C/C=C/c2ccccc2)C3)cc1", "pIC50": 6.80}
